TEST TARGET: T1, hB7-H3 (ELISA antigen of Tables 17 and 20) (human, UniProt Q5ZPR3 29-466, limits assumed)
T1 sequence: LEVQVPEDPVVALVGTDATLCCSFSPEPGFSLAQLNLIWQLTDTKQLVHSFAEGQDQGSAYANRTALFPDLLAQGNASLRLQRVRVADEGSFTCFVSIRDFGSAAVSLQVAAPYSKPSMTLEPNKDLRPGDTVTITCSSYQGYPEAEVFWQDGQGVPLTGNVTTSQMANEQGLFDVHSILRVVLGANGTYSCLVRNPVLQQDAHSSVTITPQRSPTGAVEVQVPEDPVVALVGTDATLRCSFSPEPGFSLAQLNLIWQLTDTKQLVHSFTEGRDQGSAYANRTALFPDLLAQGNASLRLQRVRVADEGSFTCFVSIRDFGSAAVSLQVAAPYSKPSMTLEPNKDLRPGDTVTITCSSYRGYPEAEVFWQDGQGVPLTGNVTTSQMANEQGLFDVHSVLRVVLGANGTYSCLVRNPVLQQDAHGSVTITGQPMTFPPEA
METHOD: ELISA
QUANTITY MEASURED: EC50 (pM)
One number for each entry, in pM.

Check out these entries, answers already filled in.
INSERT INTO measurements (binder, quantity_measured, units_label, data_value) VALUES
  ('huAb3v2.6 (antibody, human IgG1, kappa, L234A L235A, V domains shown, Ig gamma-1 mutant / kappa) VH: EVQLVQSGAEVKKPGSSVKVSCKASGYTFSSYWMHWVRQAPGQGLEWIGLIHPESGSTNYNEMFKNRATLTVDRSTSTAYMELSSLRSEDTAVYYCAGGGRLYFDYWGQGTTVTVSS VL: DIVMTQSPLSLPVTPGEPASISCRSSQSLVHSNQDTYLRWYLQKPGQSPQLLIYKVSNRFSGVPDRFSGSGSGTDFTLKISRVEAEDVGVYYCSQSTHVPYTFGGGTKVEIKR', 'EC50', 'pM', 90),
  ('huAb3v2.2 (antibody, V domains shown) VH: EVQLVQSGAEVKKPGSSVKVSCKASGYTFSSYWMHWVRQAPGQGLEWIGLIHPWSGSTNYNEMFKNRATLTVDRSTSTAYMELSSLRSEDTAVYYCAGGGRLYFDYWGQGTTVTVSS VL: DIVMTQSPLSLPVTPGEPASISCRSSQSLVHSNRDTYLRWYLQKPGQSPQLLIYKVSNRFSGVPDRFSGSGSGTDFTLKISRVEAEDVGVYYCSQSTHVPYTFGGGTKVEIK', 'EC50', 'pM', 100),
  ('huAb3v2.5 (antibody, human IgG1, kappa, L234A L235A, V domains shown, Ig gamma-1 mutant / kappa) VH: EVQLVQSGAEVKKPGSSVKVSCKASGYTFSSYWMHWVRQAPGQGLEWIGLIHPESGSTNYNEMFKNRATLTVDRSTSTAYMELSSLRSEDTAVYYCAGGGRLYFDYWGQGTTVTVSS VL: DIVMTQSPLSLPVTPGEPASISCRSSQSLVHSNRDTYLRWYLQKPGQSPQLLIYKVSNRFSGVPDRFSGSGSGTDFTLKISRVEAEDVGVYYCSQSTHVPYTFGGGTKVEIKR', 'EC50', 'pM', 130),
  ('huAb3v2 (antibody, V domains shown) VH: EVQLVQSGAEVKKPGSSVKVSCKASGYTFSSYWMHWVRQAPGQGLEWIGLIHPDSGSTNYNEMFKNRATLTVDRSTSTAYMELSSLRSEDTAVYYCAGGGRLYFDYWGQGTTVTVSS VL: DIVMTQSPLSLPVTPGEPASISCRSSQSLVHSNGDTYLRWYLQKPGQSPQLLIYKVSNRFSGVPDRFSGSGSGTDFTLKISRVEAEDVGVYYCSQSTHVPYTFGGGTKVEIK', 'EC50', 'pM', 440);

Next up:
Give EC50 for huAb3v2.9 (antibody, V domains shown) VH: EVQLVQSGAEVKKPGSSVKVSCKASGYTFSSYWMHWVRQAPGQGLEWIGLIHPISGSTNYNEMFKNRATLTVDRSTSTAYMELSSLRSEDTAVYYCAGGGRLYFDYWGQGTTVTVSS VL: DIVMTQSPLSLPVTPGEPASISCRSSQSLVHSNQDTYLRWYLQKPGQSPQLLIYKVSNRFSGVPDRFSGSGSGTDFTLKISRVEAEDVGVYYCSQSTHVPYTFGGGTKVEIK
160
